test system: Oocyte; test: Activity at rat GABAA alpha-1-beta-2-gamma-2L receptor expressed in Xenopus laevis oocytes assessed as gating effect at 10 uM by electrophysiology method; assay type: cell-based
Below, each entry is listed with its recorded Ratio.
Give the figure only, with no unit attached.

Reference set (2 entries):
[[record]]
smiles_str = "C[C@]12C[C@H]3CC[C@H](CCO)C[C@@H]3C[C@@H]1CCC2=O"
value_kind = "Ratio"
result_value = -0.02

[[record]]
smiles_str = "C[C@]12C[C@H]3CC[C@H](CCO)C[C@@H]3C[C@@H]1CC[C@@]21CO1"
value_kind = "Ratio"
result_value = 0.03


Problem: Identify measured Ratio associated with `C[C@]12C[C@H]3CC[C@@H]4C[C@@H](O)CC[C@H]4[C@@H]3C[C@@H]1CC[C@@]21CO1`
Result: 0.15

* * *

system: Oocyte; experiment: Activity at rat GABAA alpha-1-beta-2-gamma-2L receptor expressed in Xenopus laevis oocytes assessed as gating effect at 10 uM by electrophysiology method; format: cell-based
Threshold rule: Ratio greater than or equal to 0.05 is t; below that, f.

[[record]]
smiles_str = "C[C@]12CC[C@@H]3C[C@H](CCO)CC[C@H]3[C@@H]1CC[C@@]21CO1"
group_label = "f"

[[record]]
smiles_str = "C[C@]12CC[C@@H](O)C[C@@H]1CC[C@@H]1[C@@H]2CC[C@@]2(C)[C@H]1CC[C@@]21CO1"
group_label = "t"

[[record]]
smiles_str = "C[C@]12C[C@H]3C[C@H]4CC[C@@H](O)C[C@@H]4C[C@@H]3C[C@@H]1CCC2=O"
group_label = "t"


Problem: Hi, just wondering whether `C[C@]12C[C@H]3C[C@H]4CC[C@@H](O)C[C@@H]4C[C@@H]3C[C@@H]1CC[C@@]21CO1` shows Ratio of 0.05 or higher.
Result: t

Problem: Hi, just wondering whether `C[C@]12CC[C@@H]3C[C@H](CCO)CC[C@H]3[C@@H]1CCC2=O` shows Ratio of 0.05 or higher.
Result: f

Problem: Hi, just wondering whether `C[C@]12CC[C@@H](O)C[C@@H]1CC[C@@H]1[C@@H]2CC[C@]2(C)C(=O)CC[C@@H]12` shows Ratio of 0.05 or higher.
Result: f

* * *

assay: Displacement of [35S]TBPS from GABAA receptor in rat brain membrane; assay type: cell membranes
Below, each entry is listed with its recorded pIC50.
# reply with the number alone; pIC50 is -log10 of concentration in mol/L

[[record]]
smiles_str = "C[C@]12CC[C@@H]3C[C@H](CCO)CC[C@H]3[C@@H]1CCC2=O"
result_value = 5.38

[[record]]
smiles_str = "C[C@]12CC[C@@H](O)C[C@@H]1CC[C@@H]1[C@@H]2CC[C@]2(C)C(=O)CC[C@@H]12"
result_value = 6.39

[[record]]
smiles_str = "C[C@]12C[C@H]3CC[C@@H]4C[C@@H](O)CC[C@H]4[C@@H]3C[C@@H]1CC[C@@]21CO1"
result_value = 7.40


Attention now turns to another entry.
Problem: Identify measured pIC50 associated with `C[C@]12C[C@H]3CC[C@H](CCO)C[C@@H]3C[C@@H]1CCC2=O`
Result: 5.30

* * *

Below, each entry is listed with its recorded Ratio.
test system: Oocyte; test: Activity at rat GABAA alpha-1-beta-2-gamma-2L receptor expressed in Xenopus lavies oocytes assessed as ratio of effect on current at 1 uM drug to absence of compound by electrophysiology method; format: cell-based
Give the figure only, with no unit attached.

Problem: Identify measured Ratio associated with `C[C@]12C[C@H]3C[C@H]4CC[C@@H](O)C[C@@H]4C[C@@H]3C[C@@H]1CCC2=O`
Result: 5.03

Problem: Identify measured Ratio associated with `C[C@]12C[C@H]3CC[C@H](CCO)C[C@@H]3C[C@@H]1CCC2=O`
Result: 1

Problem: Identify measured Ratio associated with `C[C@]12C[C@H]3CC[C@@H]4C[C@@H](O)CC[C@H]4[C@@H]3C[C@@H]1CC[C@@]21CO1`
Result: 15.7

Problem: Identify measured Ratio associated with `C[C@]12C[C@H]3CC[C@@H]4C[C@@H](O)CC[C@H]4[C@@H]3C[C@@H]1CCC2=O`
Result: 1.32

Problem: Identify measured Ratio associated with C[C@]12CC[C@@H](O)C[C@@H]1CC[C@@H]1[C@@H]2CC[C@]2(C)C(=O)CC[C@@H]12 [ANDROSTERONE]
Result: 1.41

Problem: Identify measured Ratio associated with `C[C@]12CC[C@@H](O)C[C@@H]1CC[C@@H]1[C@@H]2CC[C@@]2(C)[C@H]1CC[C@@]21CO1`
Result: 21.9

Problem: Identify measured Ratio associated with `C[C@]12CC[C@@H]3C[C@H](CCO)CC[C@H]3[C@@H]1CC[C@@]21CO1`
Result: 4.11

* * *

tested on: Oocyte; experiment: Activity at rat GABAA alpha-1-beta-2-gamma-2L receptor expressed in Xenopus lavies oocytes assessed as ratio of effect on current at 0.1 uM drug to absence of compound by electrophysiology method; assay type: cell-based
value kind: Ratio

Reference set (6 entries):
[[record]]
molecule = "C[C@]12C[C@H]3C[C@H]4CC[C@@H](O)C[C@@H]4C[C@@H]3C[C@@H]1CC[C@@]21CO1"
assay_system = "Oocyte"
result_value = 1.53

[[record]]
molecule = "C[C@]12CC[C@@H]3C[C@H](CCO)CC[C@H]3[C@@H]1CC[C@@]21CO1"
assay_system = "Oocyte"
result_value = 1.1

[[record]]
molecule = "C[C@]12CC[C@@H]3C[C@H](CCO)CC[C@H]3[C@@H]1CCC2=O"
assay_system = "Oocyte"
result_value = 0.99

[[record]]
molecule = "C[C@]12CC[C@@H](O)C[C@@H]1CC[C@@H]1[C@@H]2CC[C@]2(C)C(=O)CC[C@@H]12 [ANDROSTERONE]"
assay_system = "Oocyte"
result_value = 0.97

[[record]]
molecule = "C[C@]12C[C@H]3CC[C@H](CCO)C[C@@H]3C[C@@H]1CC[C@@]21CO1"
assay_system = "Oocyte"
result_value = 0.86

[[record]]
molecule = "C[C@]12C[C@H]3CC[C@H](CCO)C[C@@H]3C[C@@H]1CCC2=O"
assay_system = "Oocyte"
result_value = 1


Problem: Identify measured Ratio associated with `C[C@]12C[C@H]3CC[C@@H]4C[C@@H](O)CC[C@H]4[C@@H]3C[C@@H]1CC[C@@]21CO1`
Result: 2.16

* * *

tested on: Oocyte; experiment: Activity at rat GABAA alpha-1-beta-2-gamma-2L receptor expressed in Xenopus lavies oocytes assessed as ratio of effect on current at 10 uM drug to absence of compound by electrophysiology method; type: cell-based
Below, each entry is listed with its recorded Ratio.
Give the figure only, with no unit attached.

[[record]]
smiles_str = "C[C@]12CC[C@@H]3C[C@H](CCO)CC[C@H]3[C@@H]1CCC2=O"
result_value = 1.05

[[record]]
smiles_str = "C[C@]12C[C@H]3CC[C@@H]4C[C@@H](O)CC[C@H]4[C@@H]3C[C@@H]1CC[C@@]21CO1"
result_value = 29.7

[[record]]
smiles_str = "C[C@]12CC[C@@H](O)C[C@@H]1CC[C@@H]1[C@@H]2CC[C@]2(C)C(=O)CC[C@@H]12"
result_value = 5.44

[[record]]
smiles_str = "C[C@]12C[C@H]3CC[C@H](CCO)C[C@@H]3C[C@@H]1CCC2=O"
result_value = 2.42

[[record]]
smiles_str = "C[C@]12C[C@H]3C[C@H]4CC[C@@H](O)C[C@@H]4C[C@@H]3C[C@@H]1CCC2=O"
result_value = 28.4


Problem: Identify measured Ratio associated with `C[C@]12CC[C@@H](O)C[C@@H]1CC[C@@H]1[C@@H]2CC[C@@]2(C)[C@H]1CC[C@@]21CO1`
Result: 33.7

Problem: Identify measured Ratio associated with `C[C@]12C[C@H]3C[C@H]4CC[C@@H](O)C[C@@H]4C[C@@H]3C[C@@H]1CC[C@@]21CO1`
Result: 26.3

Problem: Identify measured Ratio associated with `C[C@]12C[C@H]3CC[C@H](CCO)C[C@@H]3C[C@@H]1CC[C@@]21CO1`
Result: 5.37

Problem: Identify measured Ratio associated with `C[C@]12CC[C@@H]3C[C@H](CCO)CC[C@H]3[C@@H]1CC[C@@]21CO1`
Result: 20

Problem: Identify measured Ratio associated with `C[C@]12C[C@H]3CC[C@@H]4C[C@@H](O)CC[C@H]4[C@@H]3C[C@@H]1CCC2=O`
Result: 6.14

* * *

tested on: Xenopus laevis; test: Anesthetic effect on Xenopus lavies tadpole assessed as loss of swimming reflex; format: functional
Below, each entry is listed with its recorded ED50.
Number only, in µM; omit the unit.

[[record]]
smiles_str = "C[C@]12C[C@H]3CC[C@@H]4C[C@@H](O)CC[C@H]4[C@@H]3C[C@@H]1CC[C@@]21CO1"
result_value = 0.87


Problem: Identify measured ED50 associated with `C[C@]12CC[C@@H](O)C[C@@H]1CC[C@@H]1[C@@H]2CC[C@@]2(C)[C@H]1CC[C@@]21CO1`
Result: 2.76

Problem: Identify measured ED50 associated with `C[C@]12C[C@H]3C[C@H]4CC[C@@H](O)C[C@@H]4C[C@@H]3C[C@@H]1CC[C@@]21CO1`
Result: 1.73

Problem: Identify measured ED50 associated with `C[C@]12CC[C@@H]3C[C@H](CCO)CC[C@H]3[C@@H]1CC[C@@]21CO1`
Result: 5.48

Problem: Identify measured ED50 associated with `C[C@]12C[C@H]3C[C@H]4CC[C@@H](O)C[C@@H]4C[C@@H]3C[C@@H]1CCC2=O`
Result: 5.48
